# Test system: wild type Ebola virus, Mayinga strain
# EXPERIMENT NOTES: microbe, parasite or virus in culture
# Assay type: cell-based
# CONDITION: Zaire ebolavirus, Huh-7, 24 h, read-out: EBOV IC50
Rule for this label: YES means IC50 is less than 0.4 µM; NO means IC50 is at least 0.4 µM.

Enquiry: Does "COc1ccc2c(c1)CCN(Cc1ccccc1)[C@@H]2Cc1ccc(Oc2ccc(C[C@@H]3c4ccc(OC)cc4CCN3Cc3ccccc3)cc2)cc1" have IC50 strictly under 0.4 µM?
Return: NO

Enquiry: Does "COc1cc2c(cc1OC)[C@@H](Cc1cccc(Oc3cccc(C[C@@H]4c5cc6c(cc5CCN4C)OCO6)c3)c1)N(C)CC2" have IC50 strictly under 0.4 µM?
Return: NO

Enquiry: Does "COc1cc2c(cc1OC)[C@@H](Cc1ccc(Oc3cccc(C[C@@H]4c5cc(OC)c(OC)cc5CCN4C)c3)nc1)N(C)CC2" have IC50 strictly under 0.4 µM?
Return: NO

Enquiry: Does "COc1ccc2c(c1)CCN(C)[C@@H]2Cc1cccc(Oc2ccc(C[C@@H]3c4cc5c(cc4CCN3C)OCO5)cc2)c1" have IC50 strictly under 0.4 µM?
Return: NO

Enquiry: Does "COc1ccc2c(c1)CCN(C)[C@@H]2Cc1ccc(Oc2ccc(C[C@@H]3c4ccc(OC)cc4CCN3C)cc2OC)cc1" have IC50 strictly under 0.4 µM?
Return: YES

Enquiry: Does "COc1ccc2c(c1)CCN(C)[C@@H]2Cc1ccc(Oc2ccc(C[C@@H]3c4cc5c(cc4CCN3C)OCO5)cc2)cc1" have IC50 strictly under 0.4 µM?
Return: YES
